Entries and their Lym
# Organism: Rattus norvegicus
# protocolNotes: Open TG-GATES - Regimen: Single
# Type: toxicity, organism-based, Sprague-Dawley
# Design: regimen Single, gender Male, age 6 weeks
# assaySetup: in vivo, po, 10 mg/kg, 6 h, tissue Blood, route gavage, dose level Low
Kindly answer with a numeric value in %, unit omitted.

// known answers, use as guide
CN(C)CCN(Cc1cccs1)c1ccccn1 :: 77.8
CC1=C(/C=C/C(C)=C/C=C/C(C)=C/CO)C(C)(C)CCC1 [RETINOL] :: 80.4

(Q) // lookup Lym for CC(C)OC(=O)C(C)(C)Oc1ccc(C(=O)c2ccc(Cl)cc2)cc1 [FENOFIBRATE]
(A) 69.4

(Q) // lookup Lym for CN(C)CCCN1c2ccccc2CCc2ccc(Cl)cc21 [CLOMIPRAMINE]
(A) 79.6

(Q) // lookup Lym for CN(C)CCCN1c2ccccc2CCc2ccccc21 [IMIPRAMINE]
(A) 75

----------
Entries and their Ca
# Species on record: Rattus norvegicus
# protocolNotes: Open TG-GATES - Regimen: Single
# Type: toxicity, organism-based, Sprague-Dawley
# Set-up: regimen Single, gender Male, age 6 weeks
# assaySetup: in vivo, po, 1000 mg/kg, 9 h, tissue Plasma, route gavage, dose level High
Kindly answer with a numeric value in mg/dL, unit omitted.

NC(N)=Nc1nc(CSCCC(N)=NS(N)(=O)=O)cs1 :: 10.3
COc1ccc2[nH]c([S+]([O-])Cc3ncc(C)c(OC)c3C)nc2c1 (centres undefined) :: 10.2
COC1=CC(=O)C[C@@H](C)[C@]12Oc1c(Cl)c(OC)cc(OC)c1C2=O :: 10.8

Next:
(Q) // lookup Ca for CCOC(=O)CCC(=O)O[C@H]1[C@H](O[C@@H]2[C@@H](C)[C@H](O[C@H]3C[C@@](C)(OC)[C@@H](O)[C@H](C)O3)[C@@H](C)C(=O)O[C@H](CC)[C@@](C)(O)[C@H](O)[C@@H](C)C(=O)[C@H](C)C[C@@]2(C)O)O[C@H](C)C[C@@H]1N(C)C [ERYTHROMYCIN ETHYLSUCCINATE]
(A) 10.5

----------
# Organism: Rattus norvegicus
# protocolNotes: Open TG-GATES - Regimen: Daily Repeat
# Type: toxicity, organism-based, Sprague-Dawley
# Set-up: regimen Daily Repeat, gender Male, age 6 weeks
# assaySetup: in vivo, po, 0 mg/kg, […], tissue Plasma, route gavage, dose level Control, time 7 day
outcomeMeasure: K (meq/L)
Kindly answer with a numeric value in meq/L, unit omitted.

// known answers, use as guide
CN1C(=O)CN=C(c2ccccc2)c2cc(Cl)ccc21 :: 5.1
CCOc1ccc(NC(=O)CC(C)O)cc1 (configuration not stated) :: 4
CC1=C(/C=C/C(C)=C/C=C/C(C)=C/CO)C(C)(C)CCC1 :: 4.4

(Q) // lookup K for COc1ccc2[nH]c([S+]([O-])Cc3ncc(C)c(OC)c3C)nc2c1 (configuration not stated)
(A) 3.9

(Q) // lookup K for CCCNC(=O)NS(=O)(=O)c1ccc(Cl)cc1 [CHLORPROPAMIDE]
(A) 4.2

----------
# Species: Rattus norvegicus
# protocolNotes: Open TG-GATES - Regimen: Single
# Assay type: toxicity, organism-based, Sprague-Dawley
# Parameters: regimen Single, gender Male, age 6 weeks
# assaySetup: in vivo, po, 300 mg/kg, 24 h, tissue Blood, route gavage, dose level Middle
outcomeMeasure: Neu (%)
Kindly answer with a numeric value in %, unit omitted.

// known answers, use as guide
COc1ccc2[nH]c([S+]([O-])Cc3ncc(C)c(OC)c3C)nc2c1 (centres undefined) [OMEPRAZOLE] :: 14.6
CCOC(=O)CCC(=O)O[C@H]1[C@H](O[C@@H]2[C@@H](C)[C@H](O[C@H]3C[C@@](C)(OC)[C@@H](O)[C@H](C)O3)[C@@H](C)C(=O)O[C@H](CC)[C@@](C)(O)[C@H](O)[C@@H](C)C(=O)[C@H](C)C[C@@]2(C)O)O[C@H](C)C[C@@H]1N(C)C [ERYTHROMYCIN ETHYLSUCCINATE] :: 10.8

(Q) // lookup Neu for NC(N)=Nc1nc(CSCCC(N)=NS(N)(=O)=O)cs1 [FAMOTIDINE]
(A) 15.6

(Q) // lookup Neu for COC1=CC(=O)C[C@@H](C)[C@]12Oc1c(Cl)c(OC)cc(OC)c1C2=O [GRISEOFULVIN]
(A) 19.8

----------
Entries and their TC
# Species on record: Rattus norvegicus
# protocolNotes: Open TG-GATES - Regimen: Daily Repeat
# Type: toxicity, organism-based, Sprague-Dawley
# Parameters: regimen Daily Repeat, gender Male, age 6 weeks
# assaySetup: in vivo, po, 300 mg/kg, 72 h, tissue Plasma, route gavage, dose level Middle, time 3 day

// known answers, use as guide
NC(N)=Nc1nc(CSCCC(N)=NS(N)(=O)=O)cs1 :: 76.2 mg/dL
CCOC(=O)CCC(=O)O[C@H]1[C@H](O[C@@H]2[C@@H](C)[C@H](O[C@H]3C[C@@](C)(OC)[C@@H](O)[C@H](C)O3)[C@@H](C)C(=O)O[C@H](CC)[C@@](C)(O)[C@H](O)[C@@H](C)C(=O)[C@H](C)C[C@@]2(C)O)O[C@H](C)C[C@@H]1N(C)C [ERYTHROMYCIN ETHYLSUCCINATE] :: 72.2 mg/dL
CCOc1ccc(NC(=O)CC(C)O)cc1 (stereo not given) :: 82.8 mg/dL
COc1ccc2[nH]c([S+]([O-])Cc3ncc(C)c(OC)c3C)nc2c1 (stereo not given) :: 101.2 mg/dL

(Q) // lookup TC for COC1=CC(=O)C[C@@H](C)[C@]12Oc1c(Cl)c(OC)cc(OC)c1C2=O
(A) 80.4 mg/dL

----------
# Organism: Rattus norvegicus
# protocolNotes: Open TG-GATES - Regimen: Daily Repeat
# Assay type: toxicity, organism-based, Sprague-Dawley
# Set-up: regimen Daily Repeat, gender Male, age 6 weeks
# assaySetup: in vivo, po, 300 mg/kg, […], tissue Blood, route gavage, dose level Middle, time 28 day
outcomeMeasure: Mono (%)
Kindly answer with a numeric value in %, unit omitted.

CCOC(=O)CCC(=O)O[C@H]1[C@H](O[C@@H]2[C@@H](C)[C@H](O[C@H]3C[C@@](C)(OC)[C@@H](O)[C@H](C)O3)[C@@H](C)C(=O)O[C@H](CC)[C@@](C)(O)[C@H](O)[C@@H](C)C(=O)[C@H](C)C[C@@]2(C)O)O[C@H](C)C[C@@H]1N(C)C [ERYTHROMYCIN ETHYLSUCCINATE] :: 2.4
COc1ccc2[nH]c([S+]([O-])Cc3ncc(C)c(OC)c3C)nc2c1 (stereo not given) :: 2.4
COC1=CC(=O)C[C@@H](C)[C@]12Oc1c(Cl)c(OC)cc(OC)c1C2=O :: 3.2
NC(N)=Nc1nc(CSCCC(N)=NS(N)(=O)=O)cs1 :: 1.6

(Q) // lookup Mono for CCOc1ccc(NC(=O)CC(C)O)cc1 (stereo not given)
(A) 2.2

----------
# Organism: Rattus norvegicus
# protocolNotes: Open TG-GATES - Regimen: Single
# Format: toxicity, organism-based, Sprague-Dawley
# Parameters: regimen Single, gender Male, age 6 weeks
# assaySetup: in vivo, po, 100 mg/kg, 6 h, tissue Plasma, route gavage, dose level Low
Entries and their BUN
Kindly answer with a numeric value in mg/dL, unit omitted.

// known answers, use as guide
COc1ccc2[nH]c([S+]([O-])Cc3ncc(C)c(OC)c3C)nc2c1 (centres undefined) :: 9.4
CCOC(=O)CCC(=O)O[C@H]1[C@H](O[C@@H]2[C@@H](C)[C@H](O[C@H]3C[C@@](C)(OC)[C@@H](O)[C@H](C)O3)[C@@H](C)C(=O)O[C@H](CC)[C@@](C)(O)[C@H](O)[C@@H](C)C(=O)[C@H](C)C[C@@]2(C)O)O[C@H](C)C[C@@H]1N(C)C [ERYTHROMYCIN ETHYLSUCCINATE] :: 12
NC(N)=Nc1nc(CSCCC(N)=NS(N)(=O)=O)cs1 :: 9.4

Next:
(Q) // lookup BUN for COC1=CC(=O)C[C@@H](C)[C@]12Oc1c(Cl)c(OC)cc(OC)c1C2=O
(A) 10

----------
# Organism: Rattus norvegicus
# protocolNotes: Open TG-GATES - Regimen: Daily Repeat
# Format: toxicity, organism-based, Sprague-Dawley
# Set-up: regimen Daily Repeat, gender Male, age 6 weeks
# assaySetup: in vivo, po, 1000 mg/kg, […], tissue Blood, route gavage, dose level High, time 14 day
outcomeMeasure: Ht

COC1=CC(=O)C[C@@H](C)[C@]12Oc1c(Cl)c(OC)cc(OC)c1C2=O [GRISEOFULVIN] :: 42.1%
CCOC(=O)CCC(=O)O[C@H]1[C@H](O[C@@H]2[C@@H](C)[C@H](O[C@H]3C[C@@](C)(OC)[C@@H](O)[C@H](C)O3)[C@@H](C)C(=O)O[C@H](CC)[C@@](C)(O)[C@H](O)[C@@H](C)C(=O)[C@H](C)C[C@@]2(C)O)O[C@H](C)C[C@@H]1N(C)C [ERYTHROMYCIN ETHYLSUCCINATE] :: 40.6%
CC(C)OC(=O)C(C)(C)Oc1ccc(C(=O)c2ccc(Cl)cc2)cc1 [FENOFIBRATE] :: 39.9%
NC(N)=Nc1nc(CSCCC(N)=NS(N)(=O)=O)cs1 [FAMOTIDINE] :: 40.7%
COc1ccc2[nH]c([S+]([O-])Cc3ncc(C)c(OC)c3C)nc2c1 (stereo unspecified) [OMEPRAZOLE] :: 34.1%

(Q) // lookup Ht for CCOc1ccc(NC(=O)CC(C)O)cc1 (stereo unspecified) [BUCETIN]
(A) 39.7%
